The origin of these recorded values is patent US20060089378A1.

Recorded inhibition at 0.2 µM for the following compounds
- TARGET ENTITY: Cannabinoid CB2 Receptor (Homo sapiens, UniProt P34972)
- Construct: expressed in transfected cells
- Sequence (P34972 whole entry): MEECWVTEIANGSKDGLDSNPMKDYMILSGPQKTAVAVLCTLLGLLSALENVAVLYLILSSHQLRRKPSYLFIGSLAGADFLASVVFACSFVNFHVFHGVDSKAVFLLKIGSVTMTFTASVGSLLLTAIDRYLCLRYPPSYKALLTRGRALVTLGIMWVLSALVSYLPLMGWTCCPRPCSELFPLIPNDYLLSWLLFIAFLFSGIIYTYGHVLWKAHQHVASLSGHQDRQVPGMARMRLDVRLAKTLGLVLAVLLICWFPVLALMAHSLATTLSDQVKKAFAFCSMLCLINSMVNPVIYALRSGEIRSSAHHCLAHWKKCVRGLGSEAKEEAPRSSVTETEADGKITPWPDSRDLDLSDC
- TEST METHOD NOTES: Binding assay for CB2 agonists or inverse agonists (radioligand competition, membranes of transfected SK-N-MC cells)
- SETTINGS: test concentration of 0.2 μM; compounds without an IC50 binding value; read-out: Cannabinoid CB2 Receptor Binding percent inhibition

COMPOUND	inhibition at 0.2 µM
COc1ccc(/C=C2\CN(C(=O)OC(C)(C)C)Cc3c(C(=O)NN4CC5CCCC5C4)nn(-c4ccc(Cl)cc4Cl)c32)cc1 (centres unmarked)	38%
CC(=O)N1C/C(=C\c2ccc(F)cc2)c2c(c(C(=O)NN3CC4CCCC4C3)nn2-c2ccc(Cl)cc2)C1 (centres unmarked)	24%
C[C@@H](NC(=O)c1nn(-c2ccc(Cl)cc2)c2c1CNC/C2=C\c1ccc(F)cc1)c1ccccc1	5%
CCCCn1nc(C(=O)NN2CCCCC2)c2c1CCN(C(=O)OC)C2	23%
CC(=O)N1C/C(=C\c2ccc(F)cc2)c2c(c(C(=O)N(C(C)=O)N3CC4CCCC4C3)nn2-c2ccc(Cl)cc2)C1 (centres unmarked)	22%
CCNC(=O)N1C/C(=C\c2ccc(OC)cc2)c2c(c(C(=O)NN3CC4CCCC4C3)nn2-c2ccc(Cl)cc2Cl)C1 (centres unmarked)	15%
COc1ccc(/C=C2\CN(C(C)=O)Cc3c(C(=O)NC(C)c4ccccn4)nn(-c4ccc(Cl)cc4Cl)c32)cc1 (centres unmarked)	28%
CCNC(=O)N1C/C(=C\c2ccc(F)cc2)c2c(c(C(=O)NN3CCCCC3)nn2-c2ccc(Cl)cc2)C1	19%
CC(C)(C)OC(=O)N1C/C(=C\c2ccc(F)cc2)c2c(c(C(=O)NN3CCCCC3)nn2-c2ccc(Cl)cc2)C1	3%
COC(=O)N1C/C(=C\c2ccc(F)cc2)c2c(c(C(=O)N[C@@H](C)C3CCCCC3)nn2-c2ccc(Cl)cc2Cl)C1	13%
CC(C)(C)OC(=O)N1C/C(=C\c2ccc(F)cc2)c2c(c(C(=O)NN3CC4CCCC4C3)nn2-c2ccc(Cl)cc2Cl)C1 (centres unmarked)	0%
COC(=O)N1C/C(=C\c2ccc(OC)cc2)c2c(c(C(=O)NN3CCC(O)CC3)nn2-c2ccc(Cl)cc2Cl)C1	27%
COc1ccc(/C=C2\CN(C(C)=O)Cc3c(C(=O)N[C@H](C)c4ccccn4)nn(-c4ccc(Cl)cc4Cl)c32)cc1	33%
CC(NC(=O)c1nn(-c2ccc(Cl)cc2)c2c1CN(C(=O)OC(C)(C)C)C/C2=C\c1ccc(F)cc1)c1ccccn1 (centres unmarked)	6%

###

- TARGET ENTITY: Cannabinoid CB1 Receptor (Homo sapiens)
- Construct: expressed in transfected cells
- Sequence (P21554 whole entry): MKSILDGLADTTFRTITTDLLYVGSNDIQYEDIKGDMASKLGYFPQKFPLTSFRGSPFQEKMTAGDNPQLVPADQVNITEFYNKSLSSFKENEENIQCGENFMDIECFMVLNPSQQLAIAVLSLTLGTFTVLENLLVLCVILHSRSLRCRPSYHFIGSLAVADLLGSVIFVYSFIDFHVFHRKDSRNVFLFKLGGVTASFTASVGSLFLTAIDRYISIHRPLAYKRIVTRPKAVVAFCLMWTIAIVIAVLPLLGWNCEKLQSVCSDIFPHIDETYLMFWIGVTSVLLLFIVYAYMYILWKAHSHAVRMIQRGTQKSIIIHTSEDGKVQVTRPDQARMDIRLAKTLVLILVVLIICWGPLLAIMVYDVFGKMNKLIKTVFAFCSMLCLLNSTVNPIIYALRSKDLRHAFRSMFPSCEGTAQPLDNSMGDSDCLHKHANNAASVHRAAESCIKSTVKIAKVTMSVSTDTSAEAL
- TEST METHOD NOTES: Binding assay for CB1 agonists or inverse agonists (radioligand competition, membranes of transfected SK-N-MC cells)
Each record's class is read off its IC50 using these ranges: category 1 (below 0.03 µM), category 2 (0.03 µM to below 0.07 µM), category 3 (0.07 µM or more)

MOLECULE	CLASS LABEL
COc1ccc(/C=C2\CN(C(C)=O)Cc3c(C(=O)N[C@H](C)c4ccccn4)nn(-c4ccc(Cl)cc4Cl)c32)cc1 [Cpd 97]	category 1
COc1ccc(/C=C2\CNCc3c(C(=O)N[C@H](C)c4ccccc4)nn(-c4ccc(Cl)cc4Cl)c32)cc1 [Cpd 38]	category 1
COc1ccc(/C=C2\CN(C(C)=O)Cc3c(C(=O)NN4CCCCC4)nn(-c4ccc(Cl)cc4Cl)c32)cc1 [Cpd 54]	category 2
COC(=O)N1CCc2c(c(C(=O)NC3C4(C)CCC(C4)C3(C)C)nn2C2CCCCC2)C1 (stereo not drawn) [Cpd 119]	category 3
CC(NC(=O)c1nn(-c2ccc(Cl)cc2Cl)c2c1CN(C(=O)OCc1ccccc1)C/C2=C\c1ccc(F)cc1)c1ccccn1 (stereo not drawn) [Cpd 25]	category 2
COc1ccc(/C=C2\CNCc3c(C(=O)NN4CC5CCCC5C4)nn(-c4ccc(Cl)cc4Cl)c32)cc1 (stereo not drawn) [Cpd 95]	category 3
COC(=O)N1C/C(=C\c2ccc(F)cc2)c2c(c(C(=O)NN3CC4CCCC4C3)nn2-c2ccc(Cl)cc2)C1 (stereo not drawn) [Cpd 87]	category 2
C[C@@H](NC(=O)c1nn(-c2ccc(Cl)cc2Cl)c2c1CN(C(=O)OC(C)(C)C)C/C2=C\c1ccc(F)cc1)C1CCCCC1 [Cpd 8]	category 2
Cc1ccc(S(=O)(=O)N2C/C(=C\c3ccc(F)cc3)c3c(c(C(=O)N[C@H](C)c4ccccc4)nn3-c3ccc(Cl)cc3Cl)C2)cc1 [Cpd 18]	category 1
CC12CCC(C1)C(C)(C)C2NC(=O)c1nn(C2CCCCC2)c2c1CNCC2 (stereo not drawn) [Cpd 118]	category 3
COc1ccc(/C=C2\CN(S(=O)(=O)N(C)C)Cc3c(C(=O)NN4CCCCC4)nn(-c4ccc(Cl)cc4Cl)c32)cc1 [Cpd 58]	category 1
CC(NC(=O)c1nn(-c2ccc(Cl)cc2Cl)c2c1CN(C(=O)OC(C)(C)C)C/C2=C\c1ccc(F)cc1)c1ccccn1 (stereo not drawn) [Cpd 20]	category 2
COC(=O)N1CCc2c(c(C(=O)NC3C4(C)CCC(C4)C3(C)C)nn2-c2ccccc2)C1 (stereo not drawn) [Cpd 115]	category 3

###

Listed here: items and their measured inhibition at 0.2 µM.
- TARGET ENTITY: Cannabinoid CB2 Receptor (Homo sapiens)
- Construct: expressed in transfected cells
- TEST METHOD NOTES: Binding assay for CB2 agonists or inverse agonists (radioligand competition, membranes of transfected SK-N-MC cells)
- SETTINGS: read-out: Cannabinoid CB2 Receptor Binding percent inhibition
OBSERVABLE: inhibition at 0.2 µM (%)

COMPOUND	OBSERVABLE	TEST VALUE
COc1ccc(/C=C2\CNCc3c(C(=O)N[C@H](C)c4ccccn4)nn(-c4ccc(Cl)cc4Cl)c32)cc1	inhibition at 0.2 µM	7
O=C(NN1CCCCC1)c1nn(-c2ccc(Cl)cc2)c2c1CNC/C2=C\c1ccc(F)cc1	inhibition at 0.2 µM	0
COc1ccc(/C=C2\CNCc3c(C(=O)NN4CCCCC4)nn(-c4ccc(Cl)cc4Cl)c32)cc1	inhibition at 0.2 µM	20
COC(=O)N1C/C(=C\c2ccc(OC)cc2)c2c(c(C(=O)NN3CCCCC3)nn2-c2ccc(Cl)cc2Cl)C1	inhibition at 0.2 µM	66
COC(=O)N1C/C(=C\c2ccc(F)cc2)c2c(c(C(=O)NN3CC4CCCC4C3)nn2-c2ccc(Cl)cc2)C1 (stereo not shown)	inhibition at 0.2 µM	16
CC(=O)N1C/C(=C\c2ccc(F)cc2)c2c(c(C(=O)N[C@H](C)c3ccccc3)nn2-c2ccc(Cl)cc2)C1	inhibition at 0.2 µM	11
COc1ccc(/C=C2\CN(S(C)(=O)=O)Cc3c(C(=O)N[C@H](C)c4ccccn4)nn(-c4ccc(Cl)cc4Cl)c32)cc1	inhibition at 0.2 µM	32

###

- TARGET ENTITY: Cannabinoid CB1 Receptor (Homo sapiens)
- Construct: expressed in transfected cells
- TEST METHOD NOTES: Binding assay for CB1 agonists or inverse agonists (radioligand competition, membranes of transfected SK-N-MC cells)
log10 IC50 listing for selected compounds.
OBSERVABLE: log10 IC50 (log10 of the value in nM)

COMPOUND	log10 IC50
CC(C)(C)OC(=O)N1CCc2c(c(C(=O)NC3C4(C)CCC(C4)C3(C)C)nn2C2CCCCC2)C1 (stereo not shown) [Cpd 117]	4.07
C[C@@H](NC(=O)c1nn(-c2ccc(Cl)cc2Cl)c2c1CNC/C2=C\c1ccc(F)cc1)c1ccccn1 [Cpd 139]	1.60
CCNC(=O)N1C/C(=C\c2ccc(F)cc2)c2c(c(C(=O)NN3CCCCC3)nn2-c2ccc(Cl)cc2Cl)C1 [Cpd 34]	1.70
COc1ccc(/C=C2\CN(S(C)(=O)=O)Cc3c(C(=O)N[C@H](C)c4ccccc4)nn(-c4ccc(Cl)cc4Cl)c32)cc1 [Cpd 40]	0.30
CC12CCC(C1)C(C)(C)C2NC(=O)c1nn(C2CCCCC2)c2c1CN(C(=O)OCc1ccccc1)CC2 (stereo not shown) [Cpd 121]	3.18
COC(=O)N1C/C(=C\c2ccc(F)cc2)c2c(c(C(=O)N[C@H](C)c3ccccc3)nn2-c2ccc(Cl)cc2)C1 [Cpd 67]	0.70
CCOC(=O)CN1C/C(=C\c2ccc(F)cc2)c2c(c(C(=O)N[C@H](C)c3ccccc3)nn2-c2ccc(Cl)cc2)C1 [Cpd 72]	1.00
COc1ccc(/C=C2\CN(C(C)=O)Cc3c(C(=O)NC(C)c4ccccn4)nn(-c4ccc(Cl)cc4Cl)c32)cc1 (stereo not shown) [Cpd 60]	1.30
C[C@@H](NC(=O)c1nn(-c2ccc(Cl)cc2)c2c1CNC/C2=C\c1ccc(F)cc1)c1ccccc1 [Cpd 66]	1.30
COc1ccc(/C=C2\CN(S(=O)(=O)N(C)C)Cc3c(C(=O)NC(C)c4ccccn4)nn(-c4ccc(Cl)cc4Cl)c32)cc1 (stereo not shown) [Cpd 64]	0.78
CCNC(=O)N1C/C(=C\c2ccc(OC)cc2)c2c(c(C(=O)N[C@H](C)c3ccccn3)nn2-c2ccc(Cl)cc2Cl)C1 [Cpd 98]	0.90
C[C@@H](NC(=O)c1nn(-c2ccc(Cl)cc2Cl)c2c1CN(S(=O)(=O)N(C)C)C/C2=C\c1ccc(F)cc1)c1ccccc1 [Cpd 39]	0.30
COC(=O)N1C/C(=C\c2ccc(OC)cc2)c2c(c(C(=O)NN3CC4CCCC4C3)nn2-c2ccc(Cl)cc2Cl)C1 (stereo not shown) [Cpd 100]	0.85
C[C@@H](NC(=O)c1nn(-c2ccc(Cl)cc2Cl)c2c1CN(S(C)(=O)=O)C/C2=C\c1ccc(F)cc1)C1CCCCC1 [Cpd 30]	0.85
COC(=O)N1C/C(=C\c2ccc(OC)cc2)c2c(c(C(=O)N[C@H](C)c3ccccn3)nn2-c2ccc(Cl)cc2Cl)C1 [Cpd 96]	0.48
COC(=O)N1C/C(=C\c2ccc(F)cc2)c2c(c(C(=O)N[C@H](C)c3ccccc3)nn2-c2ccc(Cl)cc2Cl)C1 [Cpd 1]	0.48
CC(=O)N1C/C(=C\c2ccc(F)cc2)c2c(c(C(=O)NN3CC4CCCC4C3)nn2-c2ccc(Cl)cc2Cl)C1 (stereo not shown) [Cpd 91]	1.70
COC(=O)N1CCc2c(c(C(=O)NC3C4(C)CCC(C4)C3(C)C)nn2Cc2ccccc2)C1 (stereo not shown) [Cpd 106]	2.30
COc1ccc(/C=C2\CN(S(C)(=O)=O)Cc3c(C(=O)N[C@H](C)c4ccccn4)nn(-c4ccc(Cl)cc4Cl)c32)cc1 [Cpd 99]	0.30
C[C@@H](NC(=O)c1nn(-c2ccc(Cl)cc2Cl)c2c1CN(C(=O)OCc1ccccc1)C/C2=C\c1ccc(F)cc1)c1ccccc1 [Cpd 16]	1.30
C[C@@H](NC(=O)c1nn(-c2ccc(Cl)cc2)c2c1CN(S(C)(=O)=O)C/C2=C\c1ccc(F)cc1)c1ccccc1 [Cpd 71]	0.60
C[C@@H](NC(=O)c1nn(-c2ccc(Cl)cc2Cl)c2c1CN(C(=O)OC(C)(C)C)C/C2=C\c1ccc(F)cc1)c1ccccn1 [Cpd 138]	1.48
CC(=O)N1C/C(=C\c2ccc(F)cc2)c2c(c(C(=O)N[C@H](C)c3ccccc3)nn2-c2ccc(Cl)cc2)C1 [Cpd 68]	1.30
COC(=O)N1C/C(=C\c2ccc(F)cc2)c2c(c(C(=O)NC(C)c3ccccn3)nn2-c2ccc(Cl)cc2Cl)C1 (stereo not shown) [Cpd 23]	1.00
COC(=O)N1C/C(=C\c2ccc(F)cc2)c2c(c(C(=O)NN3CCCCC3)nn2-c2ccc(Cl)cc2)C1 [Cpd 82]	1.78
C[C@@H](NC(=O)c1nn(-c2ccc(Cl)cc2Cl)c2c1CNC/C2=C\c1ccc(F)cc1)c1ccccc1 [Cpd 15]	1.00
CCC(=O)N1CCc2c(c(C(=O)NC3C4(C)CCC(C4)C3(C)C)nn2Cc2ccccc2)C1 (stereo not shown) [Cpd 110]	2.70
CCOC(=O)N1CCc2c(c(C(=O)NC3C4(C)CCC(C4)C3(C)C)nn2C2CCCCC2)C1 (stereo not shown) [Cpd 120]	2.70
